A collection of compounds and their measured Activity
System: Hep 3B2
ASSAY REMARKS: Cytoprotective activity against GOX-induced cytotoxicity in human Hep3B cells assessed as LDH release at 10 uM treated for 5 hrs with 15 mU/ml GOX challenge by spectrophotometric method (reference value: 60.94 +/- 1.18%)
Assay type: functional
ENDPOINT LABEL: Activity (%)

>>> print(df.to_string())
                                   compound  endpoint_label  unit_label  assay_value
0  CC(C)C(=O)O[C@@H]1Cc2c(ccc3ccc(=O)oc23)OC1(C)C        Activity           %        18.04
1  O=C(CCc1ccc(O)cc1)c1ccc(O)cc1O [DAVIDIGENIN]        Activity           %        11.83
2  C/C=C(/C)C(=O)O[C@@H]1c2c(ccc3ccc(=O)oc23)OC(C)(C)[C@@H]1O[C@@H]1O[C@H](CO)[C@@H](O)[C@H](O)[C@H]1O        Activity           %        10.28
3  C=C(C)[C@H]1CC[C@](C)([C@@H](O)Cc2c(O)ccc(C(=O)/C=C/c3ccc(O)cc3)c2O)O1 (racemic)        Activity           %        14.03
4  C/C(=C\Cc1c(O)ccc(C(=O)/C=C/c2ccc(O)cc2)c1O)CCC(=O)O        Activity           %        16.93
5  CC(C)=CCCC(C)(O)C1Cc2c(O)ccc(C(=O)/C=C/c3ccc(O)cc3)c2O1 (stereo not given)        Activity           %        19.08
6  O=C(/C=C/c1ccc(O)cc1)c1ccc(O)cc1O [ISOLIQUIRITIGENIN]        Activity           %        21.06
7  CO[C@H]1c2c(ccc3ccc(=O)oc23)O[C@@H]1C(C)(C)O        Activity           %         5.66
8  Cc1c(C)c2c(c(C)c1O)CC[C@@](C)(CCC[C@H](C)CCC[C@H](C)CCCC(C)C)O2 [ALPHA-TOCOPHEROL]        Activity           %        18.89
9  O=C1CC(c2ccc(O)cc2)Oc2cc(O)ccc21 (racemic)        Activity           %         4.93
